- Test system: KM12 colon
- assayName: NCI-60 one-dose screen, 48 h
- conditionContext: 10 µM unless noted
Compounds without any hit were thinned out: in the full panel of roughly 83,000, 20% have a hit. Activity calls are given as the source filed them. Rule for the calls: active = growth percent below 10; inactive = the rest.
Outcome field: choose from active, inactive

Q: Which outcome was entered for the molecule "CN1CCN(Cc2ccc(NC(=O)c3cncc(C#Cc4cnc5ccc(OC6CCOCC6)nn45)c3)cc2C(F)(F)F)CC1" in this test?
Ans: active

Q: What is the recorded call for this molecule in the test? "CSc1ccc(/C(=N/N=C(N)N)c2ccc(F)cc2)cc1"
Ans: active

Q: Called result for "N#Cc1c(-c2cccs2)cc(-c2cnccn2)nc1SCC(=O)N/N=C/c1cccs1"
Ans: inactive

Q: Could you check what this test reported for "N#Cc1nc(-c2ccccc2)oc1N1CCC(C2(C(F)(F)F)N=N2)CC1" ?
Ans: inactive

Q: For "O=C1C(SCc2ccccc2)=C(Cl)CN1c1ccc(Cl)cc1" , which call appears in the assay record?
Ans: inactive

Q: What is the recorded call for this molecule in the test? "CCCCCC[n+]1ccc(SCC(=O)n2ccc3ccccc32)c2ccccc21"
Ans: inactive

Q: Query: recorded result category for "FC(F)(F)c1cc(Br)cc(-c2cc(-c3ccc4c(c3)OCCO4)[nH]n2)c1" in this test
Ans: inactive
